Recorded Tmax by entry
# DETAILS: oral administration, 50 mg/kg, SD rats

SMILES CODE: CN1CC[C@]23c4c5ccc(O)c4O[C@H]2[C@@H](OCCOCCOCCOCCOCCOCCOCCOCCO[C@H]2C=C[C@H]4[C@H]6Cc7ccc(O)c8c7[C@@]4(CCN6C)[C@H]2O8)C=C[C@H]3[C@H]1C5
Tmax, h: 3

SMILES CODE: CN1CC[C@]23c4c5ccc(O)c4O[C@H]2[C@@H](OCCO[C@H]2C=C[C@H]4[C@H]6Cc7ccc(O)c8c7[C@@]4(CCN6C)[C@H]2O8)C=C[C@H]3[C@H]1C5
Tmax, h: 1.0

SMILES CODE: CN1CC[C@]23c4c5ccc(O)c4O[C@H]2[C@@H](OCCOCCOCCOCCOCCOCCOCCOCCOCCO[C@H]2C=C[C@H]4[C@H]6Cc7ccc(O)c8c7[C@@]4(CCN6C)[C@H]2O8)C=C[C@H]3[C@H]1C5
Tmax, h: 3.0

SMILES CODE: CN1CC[C@]23c4c5ccc(O)c4O[C@H]2[C@@H](OCCOCCOCCOCCOCCO[C@H]2C=C[C@H]4[C@H]6Cc7ccc(O)c8c7[C@@]4(CCN6C)[C@H]2O8)C=C[C@H]3[C@H]1C5
Tmax, h: 2.0

SMILES CODE: CN1CC[C@]23c4c5ccc(O)c4O[C@H]2[C@@H](OCCOCCOCCOCCO[C@H]2C=C[C@H]4[C@H]6Cc7ccc(O)c8c7[C@@]4(CCN6C)[C@H]2O8)C=C[C@H]3[C@H]1C5
Tmax, h: 3

SMILES CODE: CN1CC[C@]23c4c5ccc(O)c4O[C@H]2[C@@H](OCCOCCO[C@H]2C=C[C@H]4[C@H]6Cc7ccc(O)c8c7[C@@]4(CCN6C)[C@H]2O8)C=C[C@H]3[C@H]1C5
Tmax, h: 2

SMILES CODE: CN1CC[C@]23c4c5ccc(O)c4O[C@H]2[C@@H](OCCOCCOCCOCCOCCOCCO[C@H]2C=C[C@H]4[C@H]6Cc7ccc(O)c8c7[C@@]4(CCN6C)[C@H]2O8)C=C[C@H]3[C@H]1C5
Tmax, h: 3

SMILES CODE: CN1CC[C@]23c4c5ccc(O)c4O[C@H]2[C@@H](OCCOCCOCCO[C@H]2C=C[C@H]4[C@H]6Cc7ccc(O)c8c7[C@@]4(CCN6C)[C@H]2O8)C=C[C@H]3[C@H]1C5
Tmax, h: 2

---

# ASSAY PROTOCOL: in vivo
# DETAILS: female, SD, rat, iv, 5 mg/kg

SMILES CODE: CN1CC[C@]23c4c5ccc(O)c4O[C@H]2[C@@H](OCCOCCOCCOCCOCCO[C@H]2C=C[C@H]4[C@H]6Cc7ccc(O)c8c7[C@@]4(CCN6C)[C@H]2O8)C=C[C@H]3[C@H]1C5
level at 1 h / ng/mL: 101
//
SMILES CODE: CN1CC[C@]23c4c5ccc(O)c4O[C@H]2[C@@H](OCCOCCOCCOCCOCCOCCOCCO[C@H]2C=C[C@H]4[C@H]6Cc7ccc(O)c8c7[C@@]4(CCN6C)[C@H]2O8)C=C[C@H]3[C@H]1C5
level at 1 h / ng/mL: 117
//
SMILES CODE: CN1CC[C@]23c4c5ccc(O)c4O[C@H]2[C@@H](OCCOCCOCCOCCOCCOCCOCCOCCO[C@H]2C=C[C@H]4[C@H]6Cc7ccc(O)c8c7[C@@]4(CCN6C)[C@H]2O8)C=C[C@H]3[C@H]1C5
level at 1 h / ng/mL: 167
//
SMILES CODE: CN1CC[C@]23c4c5ccc(O)c4O[C@H]2[C@@H](OCCOCCOCCOCCO[C@H]2C=C[C@H]4[C@H]6Cc7ccc(O)c8c7[C@@]4(CCN6C)[C@H]2O8)C=C[C@H]3[C@H]1C5
level at 1 h / ng/mL: 114
//
SMILES CODE: CN1CC[C@]23c4c5ccc(O)c4O[C@H]2[C@@H](OCCOCCO[C@H]2C=C[C@H]4[C@H]6Cc7ccc(O)c8c7[C@@]4(CCN6C)[C@H]2O8)C=C[C@H]3[C@H]1C5
level at 1 h / ng/mL: 123
//
SMILES CODE: CN1CC[C@]23c4c5ccc(O)c4O[C@H]2[C@@H](OCCOCCOCCOCCOCCOCCO[C@H]2C=C[C@H]4[C@H]6Cc7ccc(O)c8c7[C@@]4(CCN6C)[C@H]2O8)C=C[C@H]3[C@H]1C5
level at 1 h / ng/mL: 123
//
SMILES CODE: COc1ccc2c3c1O[C@H]1[C@@H](OCCOCCOCCOCCO[C@H]4C=C[C@H]5[C@H]6Cc7ccc(OC)c8c7[C@@]5(CCN6C)[C@H]4O8)C=C[C@H]4[C@@H](C2)N(C)CC[C@@]341
level at 1 h / ng/mL: 233
//
SMILES CODE: COc1ccc2c3c1O[C@H]1[C@@H](OCCOCCOCCOCCOCCOCCO[C@H]4C=C[C@H]5[C@H]6Cc7ccc(OC)c8c7[C@@]5(CCN6C)[C@H]4O8)C=C[C@H]4[C@@H](C2)N(C)CC[C@@]341
level at 1 h / ng/mL: 445
//
SMILES CODE: CN1CC[C@]23c4c5ccc(O)c4O[C@H]2[C@@H](OCCOCCOCCO[C@H]2C=C[C@H]4[C@H]6Cc7ccc(O)c8c7[C@@]4(CCN6C)[C@H]2O8)C=C[C@H]3[C@H]1C5
level at 1 h / ng/mL: 119
//
SMILES CODE: CN1CC[C@]23c4c5ccc(O)c4O[C@H]2[C@@H](OCCO[C@H]2C=C[C@H]4[C@H]6Cc7ccc(O)c8c7[C@@]4(CCN6C)[C@H]2O8)C=C[C@H]3[C@H]1C5
level at 1 h / ng/mL: 138
//
SMILES CODE: CN1CC[C@]23c4c5ccc(O)c4O[C@H]2[C@@H](OCCOCCOCCOCCOCCOCCOCCOCCOCCO[C@H]2C=C[C@H]4[C@H]6Cc7ccc(O)c8c7[C@@]4(CCN6C)[C@H]2O8)C=C[C@H]3[C@H]1C5
level at 1 h / ng/mL: 201
